Origin of values: PubChem BioAssay (NCI)

Parameter: TGI. Scope: all listed entries.
tested on: UO-31 renal; assay: NCI tumour cell line growth inhibition, 48 h

# example entries with known answers
CC1(C)N/C(=C\C=O)C(C)(C)N1O = > 100 µM
CCNCCCn1c2c(c3ccc(Cl)cc3c1=O)C(=O)c1cc(OC)cnc1-2 = 2.37 µM
NS(=O)(=O)c1ccc(/C=C/c2ccc(F)cc2)cc1 = 61.1 µM

Return value of TGI for input O=C1c2cc3c(cc2[C@@H]2[C@H]1c1ccc([N+](=O)[O-])cc1C(=O)N2CCCBr)OCO3 , no commentary.
> 100 µM

Return value of TGI for input NC(=O)CN(CC(N)=O)C(N)=O , no commentary.
> 100 µM

Return value of TGI for input CCCCOC(=O)C(NC(C(=O)OCCCC)c1cc(C(C)(C)C)c(O)c(C(C)(C)C)c1)c1cc(C(C)(C)C)c(O)c(C(C)(C)C)c1 (configuration not stated) , no commentary.
> 100 µM

====

test system: CCRF-CEM leukemia; assay: NCI tumour cell line growth inhibition, 48 h
Parameter: TGI. Scope: all listed entries.

# example entries with known answers
O=C(C/C(=N/O)C(=O)NC1=C(Cl)C(=O)c2ccccc2C1=O)CC(c1ccccc1)c1c(O)c2ccccc2oc1=O (stereo not given) = > 100 µM
O=C1OCC2=C1C(c1cccc(Cl)c1)c1cc3c(cc1N2CCO)OCCO3 (stereo not given) = > 100 µM
CC(=O)[CH-]C(=O)c1ccccc1.CC(=O)[CH-]C(=O)c1ccccc1.CC[O-].CC[O-].[Hf+4] = > 100 µM
O=C1CCCCCCCCCCC1CN1CCCC1 (stereo not given) = > 100 µM
COc1ccc2c3c1OC1C(=O)C=CC4(CC2)N(C)CCC314 (stereo not given) = 51.5 µM

Return value of TGI for input C=Cc1cncc(C#N)c1CCc1c(C#N)cncc1C=C , no commentary.
> 100 µM

Return value of TGI for input CN(C)CCN1C(=O)c2c(c3c4ccccc4n4c3c3c2c2ccccc2n3C2CC(O)C(O)C4(C)O2)C1=O (stereo not given) , no commentary.
14.4 µM

Return value of TGI for input c1cncc(C2N3CCCCC3[C@@H]3c4[nH]c5ccccc5c4CCN23)c1 (stereo not given in full) , no commentary.
> 100 µM

Return value of TGI for input CCC1(c2ccccc2)Sc2ccccc2-n2cccc2C1=O (stereo not given) , no commentary.
> 10 µM

Return value of TGI for input COc1ccc(C/C(C)=C(/c2ccc(OCCN3CCCCC3)cc2)c2ccc(OC(=O)NCc3ccccc3)cc2)cc1 , no commentary.
1.55 µM

====

Parameter: GI50. Scope: all listed entries.
tested on: M14 melanoma; test: NCI tumour cell line growth inhibition, 48 h

Cc1[nH]c2ccccc2c1CCCO = > 100000 nM
CCCCCCC[CH2][Sn]([CH2]CCCCCCC)([O]c1cccc2cccnc12)[O]c1cccc2cccnc12 = 1330 nM

// next item, GI50 requested
Return value of GI50 for input C[C@@]12CCC(=O)c3coc(c31)C(=O)c1cc3c(cc12)C(=O)C=CC3=O , no commentary.
> 1000 nM

====

system: OVCAR-5 ovarian; test: NCI tumour cell line growth inhibition, 48 h
PROPERTY_NAME: TGI

C=C/C(C)=C\CC1[C@](C)(O)CC[C@H]2C(C)(C)C(=O)CC[C@]12C (stereo partly specified) = > 100 µM
CN1CCN(C(=O)C(C)(C)c2ccc(C(=O)Nc3cn4cc(-c5ccncc5)ccc4n3)cc2)CC1 = 7.16 µM
Cc1cc2c(cc1Cl)SC1=NN(C)C(C)N1S2(=O)=O (stereo unspecified) = > 100 µM
CC(=C(c1ccccc1)c1ccccc1)N1C(=O)CC(=O)N1C = > 100 µM
O=S(=O)(/C=C/c1ccc(F)cc1)Cc1ccc(CS(=O)(=O)/C=C/c2ccc(F)cc2)cc1 = > 100 µM
O=C1OCC2=C1C(c1cccc(Cl)c1)c1cc3c(cc1N2CCO)OCCO3 (stereo unspecified) = > 100 µM
COc1cc2ccnc3c2c(c1OC)-c1coc(SC)c1-3 = > 100 µM
N#C/C(=C\c1ccsc1)c1nc2ccccc2o1 = > 100 µM
CC(C)CNc1nc2ncnc(N)c2[nH]1 = > 100 µM
O=C1CCCCC1S(=O)(=O)c1ccccc1 (stereo unspecified) = > 100 µM

Return value of TGI for input COc1cccc(-c2c[nH]c3c(N/N=C/c4ccncc4)ncnc23)c1 , no commentary.
17.2 µM
